System: KM12 colon
assayComment: NCI tumour cell line growth inhibition, 48 h
experimentalReadout: TGI

Examples from the recorded data:
compound: CC1OC(OC2C(CO)OC(O[C@H]3CC[C@@]4(C)C(=CC[C@H]5[C@@H]6C[C@@H]7O[C@]8(CC[C@@H](C)CN8)[C@@H](C)[C@@H]7[C@@]6(C)CC[C@@H]54)C3)C(O)C2O)C(O)C(O)C1O (stereo partly drawn)
TGI: > 100 µM

compound: CC(=O)N1CC(=O)N2C(=O)/C(=C/c3ccc(Cl)cc3)N=C12
TGI: > 100 µM

compound: O=c1c2cc([N+](=O)[O-])ccc2n2n1CCCC2
TGI: > 100 µM

compound: CCS(=O)(=O)Nc1cccc(Nc2c3cccc(C)c3nc3c(C)cccc23)c1OC
TGI: > 31.2 µM

compound: c1ccc2c(c1)[nH]c1c2nc2ncccn21
TGI: > 100 µM

The measured TGI associated with O=C1OC2CC=CC1C2 (stereo not drawn) reads > 100 µM

The measured TGI associated with CC(=O)NNC(=O)C1CCCCN1 (stereo not drawn) reads > 100 µM

The measured TGI associated with CN1CC(CNC(=O)OCc2ccccc2)CC2c3cccc4c3c(cn4C)CC21 (stereo not drawn) reads 4.65 µM
